Data credit: patent EP0479121A1

Give measured Measured hydration values, 30' for each item. Keep answers brief.
Tested on: stratum corneum
Assay: In vivo hydration tests on human volunteers, Corneometer (Test 3)
Condition summary: 50 mg cream on volar forearm (20 cm²), 30 min after application; average of 10 subjects; lower numbers = higher hydration; before application 241±21
Express your answer in arbitrary units, writing the number without its unit.

The recorded Measured hydration values, 30' for entry CCCCCCCCCCCCCCCCCC(=O)OCC(COC(=O)CCCCCCCCCCCCCCCCC)OP(=O)([O-])OCC[N+](C)(C)C [PCS4] equals 132

The molecule CC(C)(C)C(=O)OCC(COC(=O)C(C)(C)C)OP(=O)([O-])OCC[N+](C)(C)C [PCS3] showed Measured hydration values, 30' equal to 157

Measured Measured hydration values, 30' of CCCCCCCCCCCCCC(=O)OCC(COC(=O)CCCCCCCCCCCCC)OP(=O)([O-])OCC[N+](C)(C)C [PCS2] : 147

For reference, reported Measured hydration values, 30' for CCCCCCCCCCCCCCCC(=O)OCC(COC(=O)CCCCCCCCCCCCCCC)OP(=O)([O-])OCC[N+](C)(C)C [PCS1] stands at 165

# Measured hydration values, 30' (molecule: COc1cc(C(=O)OCC(COC(=O)c2cc(OC)c(OC)c(OC)c2)OP(=O)([O-])OCC[N+](C)(C)C)cc(OC)c1OC [PCS5] ) is 124
